- Experimental details: Acute toxicity
- Recorded conditions: mouse, in vivo, ip; male dd-strain mice
Quantity name: LD50 (mg/kg)
Write the value in mg/kg as a bare number.

Dear colleague, I am looking for the recorded LD50 of the following molecule: CCOC(=O)N1CCc2c(sc3nc(-c4ccc([N+](=O)[O-])cc4)cn23)C1
600
